# SYSTEM NAME: human V1b receptor (Homo sapiens)
ENDPOINT LABEL: log10 IC50 (log10 of the value in nM)
All values: log10 IC50 [nM].

// molecule COc1ccc(S(=O)(=O)N2C(=O)C(c3ccccc3OC)(N(C)[C@@H](C)C(=O)N(C)C)c3cc(Cl)ccc32)c(OC(F)(F)F)c1 (single isomer, unassigned) [Example 71] , assay human V1b receptor (Homo sapiens), log10 IC50 value: 0.80

// molecule COc1ccc(S(=O)(=O)N2C(=O)C(c3ccccc3OC)(N3CCOC[C@H]3C(=O)N(C)C)c3cc(Cl)ccc32)c(OC(F)(F)F)c1 (single isomer, unassigned) [Example 41] , assay human V1b receptor (Homo sapiens), log10 IC50 value: 0.85

// molecule COc1ccc(S(=O)(=O)N2C(=O)C(c3cc(C)ccc3OC)(N3C[C@H](OCCCN(C)C)C[C@H]3C(=O)N(C)C)c3cc(Cl)ccc32)c(OC(F)(F)F)c1 (single isomer, unassigned) [Example 140] , assay human V1b receptor (Homo sapiens), log10 IC50 value: 0.04

// molecule COc1ccc(S(=O)(=O)N2C(=O)C(c3cc(CCN4CCCCC4)ccc3OC)(N3C[C@H](O)C[C@H]3C(=O)N(C)C)c3cc(Cl)ccc32)c(OC(F)(F)F)c1 (single isomer, unassigned) [Example 225] , assay human V1b receptor (Homo sapiens), log10 IC50 value: -0.49

// molecule COc1ccc(S(=O)(=O)N2C(=O)C(c3cc(N4CCOCC4)ccc3OC)(N3C[C@H](O)C[C@H]3C(=O)N(C)C)c3cc(Cl)ccc32)c(OC(F)(F)F)c1 (single isomer, unassigned) [Example 191] , assay human V1b receptor (Homo sapiens), log10 IC50 value: 0.26

----------
# SYSTEM NAME: human V1b receptor (Homo sapiens, UniProt P47901)
# Construct: expressed in transfected cells; host or cells: CHO cells
# Sequence (P47901 whole entry): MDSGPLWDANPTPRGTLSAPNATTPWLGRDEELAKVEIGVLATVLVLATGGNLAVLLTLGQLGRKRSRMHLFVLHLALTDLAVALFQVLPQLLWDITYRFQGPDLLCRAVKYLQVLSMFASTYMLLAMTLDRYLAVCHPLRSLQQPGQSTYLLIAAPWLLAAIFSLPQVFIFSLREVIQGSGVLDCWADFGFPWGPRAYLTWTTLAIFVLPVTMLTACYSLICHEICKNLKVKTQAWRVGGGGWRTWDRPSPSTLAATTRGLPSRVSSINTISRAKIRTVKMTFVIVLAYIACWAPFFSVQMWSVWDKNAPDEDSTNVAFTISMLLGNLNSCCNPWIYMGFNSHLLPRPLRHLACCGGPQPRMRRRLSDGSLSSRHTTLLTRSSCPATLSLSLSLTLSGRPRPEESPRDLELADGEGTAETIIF
# ASSAY REMARKS: V1b receptor binding assay ([3H](Arg8)-vasopressin, crude membranes of CHO cells)
# CONDITION SUMMARY: 0.1 μmol/L test drug, V1b receptor binding assay; read-out: Rate of inhibition (V1b: % of inhibition)
Record form. Attribute: inhibition at 0.1 µM. Fill in for each entry.
The reply should be a number in %, with the unit left off.

COc1ccc(S(=O)(=O)N2C(=O)C(c3cc(C#N)ccc3OC)(N3C[C@H](O)C[C@H]3C(=O)N(C)C)c3cc(Cl)ccc32)c(OC(F)(F)F)c1 (single isomer, unassigned) [Example 238] has a reported inhibition at 0.1 µM of 89

COc1ccc(S(=O)(=O)N2C(=O)C(c3cccc(OC)c3OC)(N3C[C@H](O)C[C@H]3C(=O)N(C)C)c3cc(Cl)ccc32)c(OC(F)(F)F)c1 (single isomer, unassigned) [Example 240] has a reported inhibition at 0.1 µM of 85

COc1ccc(S(=O)(=O)N2C(=O)C(N[C@@H](Cc3ccc(O)cc3)C(=O)N(C)C)(c3ccccc3OC)c3cc(Cl)ccc32)c(OC(F)(F)F)c1 (single isomer, unassigned) [Example 86] has a reported inhibition at 0.1 µM of 86

CNCc1ccc(OC)c(C2(N3C[C@H](O)C[C@H]3C(=O)N(C)C)C(=O)N(S(=O)(=O)c3ccc(OC)cc3OC(F)(F)F)c3ccc(Cl)cc32)c1 (some centres unmarked) [Example 206] has a reported inhibition at 0.1 µM of 105

COc1ccc(S(=O)(=O)N2C(=O)C(CC(=O)N3CCN(c4ccncc4)CC3)(c3ccccc3OC)c3cc(Cl)ccc32)c(OC(F)(F)F)c1 (centres unmarked) [Example 43, hydrate] has a reported inhibition at 0.1 µM of 92
